B1: Azoarcus group I ribozyme (parent)
chain: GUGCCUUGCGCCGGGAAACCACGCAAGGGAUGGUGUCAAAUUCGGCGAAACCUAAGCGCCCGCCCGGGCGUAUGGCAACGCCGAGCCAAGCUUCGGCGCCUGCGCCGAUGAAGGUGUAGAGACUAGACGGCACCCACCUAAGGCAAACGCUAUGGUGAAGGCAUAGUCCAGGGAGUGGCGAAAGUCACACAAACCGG

Variants of: B1
Experiment: reverse-splicing fitness (ratio to wild type); higher = more active; in vitro selection; Mg2+ level not given
measurementLabel: reverse-splicing fitness
Numbers only.

// solved cases for reverse-splicing fitness follow
[[record]]
variantidentifier = "C82U A111C A120U C150A U176A"
measurementlabel = "reverse-splicing fitness"
recordedmeasurement = 0.00441

[[record]]
variantidentifier = "C82A A111U A120G A145G C150U C169U"
measurementlabel = "reverse-splicing fitness"
recordedmeasurement = 0.0104

[[record]]
variantidentifier = "C82G A145C C150A C169U U176G"
measurementlabel = "reverse-splicing fitness"
recordedmeasurement = 0.00493


I would be grateful if you could provide reverse-splicing fitness for each of the following entries.
1. C82G A111C A120U A145G C150G C169G
2. C82G A120C C150U U176G
3. A145G C150G
4. C82A A111U A145U C150A C169G U176A

Result:
1. 0.00703
2. 0.0136
3. 0.48
4. 0.0157

I would be grateful if you could provide reverse-splicing fitness for each of the following entries.
1. C82A A111C A145C C169G
2. C82A A111U A145G C150A C169U U176A
3. A120U A145G C169A U176C
4. C82G A120G A145U C150U

Result:
[0.00923, 0.0158, 0.00664, 0.0229]
